- measurement_description: in vitro
- measurement_setup: hamster
Entries annotated with measured CC50
Response body: numeric value in µM, unit text excluded.

> print(dat)
                                   compound  recorded.measurement
1  O=[N+]([O-])c1ccccc1/C=C/C=N/N=C/c1ccccc1O                  82.5
2  COc1cc(/C=N/Nc2nc3c([nH]2)c(=O)n(C)c(=O)n3C)ccc1O                   130
3  Cc1ccc([N+](=O)[O-])cc1NC(=O)c1cccc([N+](=O)[O-])c1O                  32.8

Now look at this one.
Incoming: Please report CC50 for the following compound: Oc1ccccc1-c1nc2c3ccccc3c3ccccc3c2[nH]1
Outgoing: 65.8

---

- measurement_description: in vitro
- measurement_setup: hamster
Entries annotated with measured CC50
Response body: numeric value in µM, unit text excluded.

> print(dat)
                                   compound  unit.annotation  recorded.measurement
1  N#CC(c1ccccc1)N(CCCCCCN(C(=O)c1ccccc1)C(C#N)c1ccccc1)C(=O)c1ccccc1 (stereo not drawn)               µM                   124
2   N#Cc1cc(-c2ccccc2)[nH]c1-c1nccc2ccccc12               µM                   211

Incoming: Please report CC50 for the following compound: CCN(CC)CCCC(C)NC(=O)c1ccc2c(c1)C(=O)c1ccccc1C2=O (stereo not drawn)
Outgoing: 62.8

All figures here come from paper PMC10535379.
